Molecular target: TNFα (Homo sapiens, UniProt P01375)
Sequence (P01375 77-233 limits assumed): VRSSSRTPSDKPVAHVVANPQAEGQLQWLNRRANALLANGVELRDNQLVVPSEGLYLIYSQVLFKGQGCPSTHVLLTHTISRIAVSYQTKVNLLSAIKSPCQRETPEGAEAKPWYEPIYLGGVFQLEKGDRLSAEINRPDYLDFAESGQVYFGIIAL
Test: TNF induced HEK-Blue assay (NF-kB-driven secreted alkaline phosphatase reporter)
Format: cell-based
Settings: TNFα 0.5 ng/mL, HEK-Blue-CD40L cells, 18 h; read-out: TNF induced HEK-Blue assay IC50 value
pIC50: −log10 of the molar value.
readout_type: pIC50

Entry Cc1nc2ccc(-c3cnc(C(C)(C)O)nc3)cc2c(N[C@H](C)c2cccc(C#N)c2)c1Cl — recorded pIC50 = > 6.00

Entry CC(C)(O)c1ncc(-c2ccc3ncc(Cl)c(NC(c4ccccc4F)C(F)F)c3c2)cn1 (single isomer, unassigned) [Example 55] — recorded pIC50 = > 6.00

Entry Cc1ccc(C)c(Nc2c(Cl)c(C(=O)O)nc3ccc(-c4ccc(C#N)nc4)cc23)c1 — recorded pIC50 = 5.00 to 6.00

Entry C[C@@H](Nc1c(Cl)cnc2ccc(-c3cnc(C(C)(C)O)nc3)cc12)c1cc(-c2ccnc(N)c2)ccc1F — recorded pIC50 = > 6.00

Entry Cc1nc2ccc(-c3cnc(N4CCN(CC(=O)O)CC4)nc3)cc2c(N[C@H](C)c2cc(C#N)ccc2F)c1Cl — recorded pIC50 = > 6.00

Entry CC[C@H](Nc1c(Cl)cnc2ccccc12)c1cc(-c2cncnc2)ccc1F — recorded pIC50 = 5.00 to 6.00

Entry C[C@@H](Nc1c(Cl)cnc2ccc(-c3cnc(N4CCN([C@@H](CNC(=O)OC(C)(C)C)C(=O)O)CC4)nc3)cc12)c1ccccc1F — recorded pIC50 = 5.00 to 6.00

Entry Cc1nc2cc(F)c(-c3cnc(C(C)(C)O)nc3)nc2c(N[C@H](C)c2ccccc2)c1Cl — recorded pIC50 = > 6.00

Entry C[C@@H](Nc1c(Cl)cnc2ccc(-c3cnc(C(C)(C)O)nc3)cc12)c1cc(CN)ccc1F — recorded pIC50 = > 6.00

Entry Cc1ccc(C)c(Nc2c(Cl)c(C(=O)N(C)C)nc3ccc(-c4ccc(C#N)nc4)cc23)c1 — recorded pIC50 = 5.00 to 6.00

Entry CCC(Nc1c(Cl)cnc2ccc(-c3cnc(C(C)(C)O)nc3)cc12)c1nc(CO)ccc1F (stereo not drawn) — recorded pIC50 = > 6.00

Entry Cc1nc2cc(F)c(-c3cnc(C(C)(C)O)nc3)cc2c(N[C@H](C)c2cc(CCO)ccc2F)c1Cl — recorded pIC50 = > 6.00

Entry CC(C)(O)c1ncc(-c2ccc3ncc(Cl)c(NCc4ccccc4C(F)(F)F)c3c2)cn1 — recorded pIC50 = > 6.00

Entry CC(=O)NC(CO)c1ccc(-c2ccc3ncc(Cl)c(N[C@H](C)c4ccccc4F)c3c2)cc1 (stereo partly drawn) — recorded pIC50 = 4.60 to 5.00

Entry COC(=O)[C@H](CN)N1CCN(c2ncc(-c3ccc4ncc(Cl)c(N[C@H](C)c5ccccc5F)c4c3)cn2)CC1 — recorded pIC50 = 5.00 to 6.00
